Each entry below carries its measured IC50, system: Acetylcholinesterase (Electrophorus electricus).
Sequence (O42275 whole entry): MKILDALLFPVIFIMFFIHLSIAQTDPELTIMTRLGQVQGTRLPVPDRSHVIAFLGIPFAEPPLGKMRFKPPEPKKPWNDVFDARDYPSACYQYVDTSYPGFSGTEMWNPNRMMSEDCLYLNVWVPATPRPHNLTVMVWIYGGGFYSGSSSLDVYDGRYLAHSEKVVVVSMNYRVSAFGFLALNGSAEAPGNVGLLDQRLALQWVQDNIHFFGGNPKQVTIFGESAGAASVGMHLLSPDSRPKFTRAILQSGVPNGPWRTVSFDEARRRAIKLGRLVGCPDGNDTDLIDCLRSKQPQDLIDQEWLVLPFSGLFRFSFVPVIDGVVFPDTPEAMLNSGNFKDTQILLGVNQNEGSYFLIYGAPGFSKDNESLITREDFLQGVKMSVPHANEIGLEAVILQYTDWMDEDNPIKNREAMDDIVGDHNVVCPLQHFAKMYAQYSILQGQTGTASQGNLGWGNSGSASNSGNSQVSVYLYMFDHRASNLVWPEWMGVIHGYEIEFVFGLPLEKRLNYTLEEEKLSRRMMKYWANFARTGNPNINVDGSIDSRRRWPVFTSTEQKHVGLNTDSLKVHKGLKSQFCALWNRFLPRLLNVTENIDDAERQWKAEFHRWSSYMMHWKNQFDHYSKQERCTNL
One number for each entry, in µM.

compound	IC50 / µM
O=C(CCc1ccc(O)cc1)CC(=O)CCc1ccc(O)cc1 [LETESTUIANIN C]	7.89
O=C(/C=C/c1ccc(O)cc1)CC(=O)/C=C/c1ccc(O)cc1 [BISDEMETHOXYCURCUMIN]	18.3

Okay, next one:
Give its IC50 value. Item: COc1cc(CCC(=O)CC(=O)CCc2ccc(O)cc2)ccc1O [TETRAHYDRODEMETHOXYCURCUMIN]
20.6

###

# tested.target: Acetylcholinesterase (Electrophorus electricus)
Answer each item with its documented pIC50.
Give bare numbers, as −log10 of the molar value.

molecule	recorded.number
COc1cc(/C=C/C(O)=C/C(=O)/C=C/c2ccc(O)cc2)ccc1O	4.42
COc1ccc(C2NC(=O)NC(CCc3ccc(O)cc3)=C2C(=O)CCc2ccc(O)cc2)cc1 (racemic)	5.87

Batch request: pIC50 per item, same order as input.
1. COc1cc(CCC(=O)C2=C(CCc3ccc(O)c(OC)c3)NC(=O)NC2c2ccc(O)c(OC)c2)ccc1O (racemic)
2. COc1cc(CCC(=O)C2=C(CCc3ccc(O)c(OC)c3)NC(=O)NC2c2ccc(O)cc2)ccc1O (racemic)
3. COc1cc(CCC(=O)C2=C(CCc3ccc(O)c(OC)c3)NC(=O)NC2c2ccccc2)ccc1O (racemic)
4. COc1ccc(C2NC(=O)NC(CCc3ccc(O)c(OC)c3)=C2C(=O)CCc2ccc(O)c(OC)c2)cc1 (racemic)
5. COc1ccc(C2NC(=O)NC(CCc3ccc(O)c(OC)c3)=C2C(=O)CCc2ccc(O)cc2)cc1 (racemic)
6. O=C1NC(CCc2ccc(O)cc2)=C(C(=O)CCc2ccc(O)cc2)C(c2ccccc2)N1 (racemic)

1: 4.25; 2: 4.76; 3: 4.44; 4: 4.85; 5: 5.04; 6: 5.69
